Entry source: BigSolDB 2.1

TEST_CONTEXT: in cyclohexane, 298.15 K
MEASURED_ENDPOINT: solubility (mole fraction)
Enter the number alone.

Query: What measured solubility (mole fraction) goes with "Cc1c([N+](=O)[O-])c(C)c([N+](=O)[O-])c(C(C)(C)C)c1[N+](=O)[O-]" ?
Result: 0.0116

---

TEST_CONTEXT: in n-butanol, 288.15 K
MEASURED_ENDPOINT: solubility (mole fraction)

Query: What measured solubility (mole fraction) goes with "Cc1c([N+](=O)[O-])c(C)c([N+](=O)[O-])c(C(C)(C)C)c1[N+](=O)[O-]" ?
Result: 0.00374

---

TEST_CONTEXT: in isopropanol, 283.15 K
MEASURED_ENDPOINT: solubility (mole fraction)
Enter the number alone.

Query: What measured solubility (mole fraction) goes with "Cc1c([N+](=O)[O-])c(C)c([N+](=O)[O-])c(C(C)(C)C)c1[N+](=O)[O-]" ?
Result: 0.00165

---

TEST_CONTEXT: in n-heptane, 283.15 K
MEASURED_ENDPOINT: solubility (mole fraction)

Query: What measured solubility (mole fraction) goes with "Cc1c([N+](=O)[O-])c(C)c([N+](=O)[O-])c(C(C)(C)C)c1[N+](=O)[O-]" ?
Result: 0.00321

---

TEST_CONTEXT: in DMAc, 288.15 K
MEASURED_ENDPOINT: solubility (mole fraction)
Enter the number alone.

Query: What measured solubility (mole fraction) goes with "Cc1c([N+](=O)[O-])c(C)c([N+](=O)[O-])c(C(C)(C)C)c1[N+](=O)[O-]" ?
Result: 0.134

---

TEST_CONTEXT: in ethanol, 298.15 K
MEASURED_ENDPOINT: solubility (mole fraction)
Enter the number alone.

Query: What measured solubility (mole fraction) goes with "Cc1c([N+](=O)[O-])c(C)c([N+](=O)[O-])c(C(C)(C)C)c1[N+](=O)[O-]" ?
Result: 0.00378

---

TEST_CONTEXT: in n-hexane, 313.15 K
MEASURED_ENDPOINT: solubility (mole fraction)
Enter the number alone.

Query: What measured solubility (mole fraction) goes with "Cc1c([N+](=O)[O-])c(C)c([N+](=O)[O-])c(C(C)(C)C)c1[N+](=O)[O-]" ?
Result: 0.0104

---

TEST_CONTEXT: in n-butanol, 293.15 K
MEASURED_ENDPOINT: solubility (mole fraction)
Enter the number alone.

Query: What measured solubility (mole fraction) goes with "Cc1c([N+](=O)[O-])c(C)c([N+](=O)[O-])c(C(C)(C)C)c1[N+](=O)[O-]" ?
Result: 0.0045

---

TEST_CONTEXT: in n-hexane, 308.15 K
MEASURED_ENDPOINT: solubility (mole fraction)
Enter the number alone.

Query: What measured solubility (mole fraction) goes with "Cc1c([N+](=O)[O-])c(C)c([N+](=O)[O-])c(C(C)(C)C)c1[N+](=O)[O-]" ?
Result: 0.00842

---

TEST_CONTEXT: in isopropanol, 293.15 K
MEASURED_ENDPOINT: solubility (mole fraction)
Enter the number alone.

Query: What measured solubility (mole fraction) goes with "Cc1c([N+](=O)[O-])c(C)c([N+](=O)[O-])c(C(C)(C)C)c1[N+](=O)[O-]" ?
Result: 0.00269

---

TEST_CONTEXT: in n-hexane, 303.15 K
MEASURED_ENDPOINT: solubility (mole fraction)
Enter the number alone.

Query: What measured solubility (mole fraction) goes with "Cc1c([N+](=O)[O-])c(C)c([N+](=O)[O-])c(C(C)(C)C)c1[N+](=O)[O-]" ?
Result: 0.00685

---

TEST_CONTEXT: in ethyl acetate, 278.15 K
MEASURED_ENDPOINT: solubility (mole fraction)
Enter the number alone.

Query: What measured solubility (mole fraction) goes with "Cc1c([N+](=O)[O-])c(C)c([N+](=O)[O-])c(C(C)(C)C)c1[N+](=O)[O-]" ?
Result: 0.0953

---

TEST_CONTEXT: in methanol, 283.15 K
MEASURED_ENDPOINT: solubility (mole fraction)
Enter the number alone.

Query: What measured solubility (mole fraction) goes with "Cc1c([N+](=O)[O-])c(C)c([N+](=O)[O-])c(C(C)(C)C)c1[N+](=O)[O-]" ?
Result: 0.00234

---

TEST_CONTEXT: in isopropanol, 288.15 K
MEASURED_ENDPOINT: solubility (mole fraction)
Enter the number alone.

Query: What measured solubility (mole fraction) goes with "Cc1c([N+](=O)[O-])c(C)c([N+](=O)[O-])c(C(C)(C)C)c1[N+](=O)[O-]" ?
Result: 0.00211

---

TEST_CONTEXT: in THF, 278.15 K
MEASURED_ENDPOINT: solubility (mole fraction)
Enter the number alone.

Query: What measured solubility (mole fraction) goes with "Cc1c([N+](=O)[O-])c(C)c([N+](=O)[O-])c(C(C)(C)C)c1[N+](=O)[O-]" ?
Result: 0.0786

---

TEST_CONTEXT: in n-heptane, 278.15 K
MEASURED_ENDPOINT: solubility (mole fraction)
Enter the number alone.

Query: What measured solubility (mole fraction) goes with "Cc1c([N+](=O)[O-])c(C)c([N+](=O)[O-])c(C(C)(C)C)c1[N+](=O)[O-]" ?
Result: 0.00262

---

TEST_CONTEXT: in n-hexane, 293.15 K
MEASURED_ENDPOINT: solubility (mole fraction)
Enter the number alone.

Query: What measured solubility (mole fraction) goes with "Cc1c([N+](=O)[O-])c(C)c([N+](=O)[O-])c(C(C)(C)C)c1[N+](=O)[O-]" ?
Result: 0.00437

---

TEST_CONTEXT: in n-heptane, 313.15 K
MEASURED_ENDPOINT: solubility (mole fraction)

Query: What measured solubility (mole fraction) goes with "Cc1c([N+](=O)[O-])c(C)c([N+](=O)[O-])c(C(C)(C)C)c1[N+](=O)[O-]" ?
Result: 0.0114

---

TEST_CONTEXT: in ethyl acetate, 313.15 K
MEASURED_ENDPOINT: solubility (mole fraction)
Enter the number alone.

Query: What measured solubility (mole fraction) goes with "Cc1c([N+](=O)[O-])c(C)c([N+](=O)[O-])c(C(C)(C)C)c1[N+](=O)[O-]" ?
Result: 0.262

---

TEST_CONTEXT: in ethanol, 278.15 K
MEASURED_ENDPOINT: solubility (mole fraction)
Enter the number alone.

Query: What measured solubility (mole fraction) goes with "Cc1c([N+](=O)[O-])c(C)c([N+](=O)[O-])c(C(C)(C)C)c1[N+](=O)[O-]" ?
Result: 0.00168

---

TEST_CONTEXT: in n-butanol, 313.15 K
MEASURED_ENDPOINT: solubility (mole fraction)
Enter the number alone.

Query: What measured solubility (mole fraction) goes with "Cc1c([N+](=O)[O-])c(C)c([N+](=O)[O-])c(C(C)(C)C)c1[N+](=O)[O-]" ?
Result: 0.00974

---

TEST_CONTEXT: in cyclohexane, 283.15 K
MEASURED_ENDPOINT: solubility (mole fraction)
Enter the number alone.

Query: What measured solubility (mole fraction) goes with "Cc1c([N+](=O)[O-])c(C)c([N+](=O)[O-])c(C(C)(C)C)c1[N+](=O)[O-]" ?
Result: 0.00588

---

TEST_CONTEXT: in n-hexane, 288.15 K
MEASURED_ENDPOINT: solubility (mole fraction)
Enter the number alone.

Query: What measured solubility (mole fraction) goes with "Cc1c([N+](=O)[O-])c(C)c([N+](=O)[O-])c(C(C)(C)C)c1[N+](=O)[O-]" ?
Result: 0.00359

---

TEST_CONTEXT: in n-butanol, 298.15 K
MEASURED_ENDPOINT: solubility (mole fraction)
Enter the number alone.

Query: What measured solubility (mole fraction) goes with "Cc1c([N+](=O)[O-])c(C)c([N+](=O)[O-])c(C(C)(C)C)c1[N+](=O)[O-]" ?
Result: 0.00553

---

TEST_CONTEXT: in THF, 308.15 K
MEASURED_ENDPOINT: solubility (mole fraction)

Query: What measured solubility (mole fraction) goes with "Cc1c([N+](=O)[O-])c(C)c([N+](=O)[O-])c(C(C)(C)C)c1[N+](=O)[O-]" ?
Result: 0.156

---

TEST_CONTEXT: in methanol, 303.15 K
MEASURED_ENDPOINT: solubility (mole fraction)
Enter the number alone.

Query: What measured solubility (mole fraction) goes with "Cc1c([N+](=O)[O-])c(C)c([N+](=O)[O-])c(C(C)(C)C)c1[N+](=O)[O-]" ?
Result: 0.00569

---

TEST_CONTEXT: in n-hexane, 283.15 K
MEASURED_ENDPOINT: solubility (mole fraction)

Query: What measured solubility (mole fraction) goes with "Cc1c([N+](=O)[O-])c(C)c([N+](=O)[O-])c(C(C)(C)C)c1[N+](=O)[O-]" ?
Result: 0.00284
